- MEASUREMENT_DESCRIPTION: qHTS profiling for inhibitors of Plasmodium falciparum proliferation (AID 504749);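 also: 0% = DMSO vehicle and full inhibition = artemisinin control; nearly all actives have a fitted effect of over 60% in size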
- CONDITION_PARAMETERS: P. falciparum in erythrocytes, SYBR Green DNA, 72 h; at 28.7 µM (top of the series); parasite line B
Inconclusive results are not listed.
READOUT_NAME: activity, negative = inhibition (%)
The figure you give is taken to be in %; do not add the unit.

Examples with their reported activity, negative = inhibition follow.
| MOLECULE | activity, negative = inhibition [%] |
| --- | --- |
| Cn1cc(O)nc1NC(=O)Nc1cccc(Cl)c1 | -22.3 |
| C=CC1=C(C(=O)O)N2C(=O)[C@@H](NC(=O)C(N=O)c3csc(N)n3)[C@H]2SC1 (stereo partly drawn) | 16.7 |
| CCC1NC(=O)C(NC(=O)c2ncccc2O)C(C)OC(=O)C(c2ccccc2)NC(=O)C2CC(=O)CCN2C(=O)C(Cc2ccccc2)N(C)C(=O)C2CCCN2C1=O (stereo not drawn) | -28.7 |
| CC1(C)C(/C=C/C=C/C=C/C=C2\N(CCCCS(=O)(=O)O)c3ccc4ccccc4c3C2(C)C)=[N+](CCCCS(=O)(=O)[O-])c2ccc3ccccc3c21 | 4.13 |
| NC(=O)CCC1NC(=O)C(Cc2ccccc2)NC(=O)C(Cc2ccc(O)cc2)NC(=O)CCSSCC(C(=O)N2CCCC2C(=O)NC(CCCN=C(N)N)C(=O)NCC(N)=O)NC(=O)C(CC(N)=O)NC1=O (stereo not drawn) | 7.06 |

input: Report measured activity, negative = inhibition; entry is `O=C(O)c1ccccc1-c1c2cc(Br)c(=O)c(Br)c-2oc2c(Br)c(O)c(Br)cc12`
output: -13.6

input: Report measured activity, negative = inhibition; entry is CC(=O)OCC1=C(C(=O)O)N2C(=O)C(NC(=O)Cc3ccccc3)C2SC1 (stereo not drawn)
output: 0.234

input: Report measured activity, negative = inhibition; entry is CC(C)CC(NC(=O)C(COC(C)(C)C)NC(=O)C(Cc1ccc(O)cc1)NC(=O)C(CO)NC(=O)C(Cc1c[nH]c2ccccc12)NC(=O)C(Cc1cnc[nH]1)NC(=O)C1CCC(=O)N1)C(=O)NC(CCCN=C(N)N)C(=O)N1CCCC1C(=O)NNC(N)=O (stereo not drawn)
output: 5.86

* * *

- Test system: DIV17
- MEASUREMENT_DESCRIPTION: qHTS profiling for inhibitors of Plasmodium falciparum proliferation (AID 504749);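 also: 0% = DMSO vehicle and full inhibition = artemisinin control; nearly all actives have a fitted effect of over 60% in size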
- CONDITION_PARAMETERS: P. falciparum in erythrocytes, SYBR Green DNA, 72 h; series mostly up to 28.7 µM
Records with an inconclusive call do not appear. The source made the active and inactive calls. The call rests on the fitted dose curve; in most records, active means well fitted inhibition curve with a large enough effect; inconclusive means small, poorly fitted or top-dose-only effect; inactive means flat fitted curve, though single readings scatter. Numbered stars: 1 amine (or outer) side, 2 acyl side, 3 side chain; on linkers, the order of the positions; unused ones are H or OH. Bridge positions count the residues as written; N and C are the ends. Square brackets hold non-standard residues; d marks the D form. Peptide text beside a SMILES is read from it. * marks the point of attachment. ξ: configuration not given here. ΔAla(Z-3-ureido) = NC(=O)N/C=C(\N)C(=O)O; X1 = NC1=NCCC(C(N[*:1])C(=O)[*:2])N1; ξβ3hOrn = NCCCC(N)CC(=O)*; Dap = NC[CH](N)C(=O)O
READOUT_NAME: outcome

Examples with their reported outcome follow.
| COMPOUND | READOUT_NAME | MEASURED |
| --- | --- | --- |
| CC(C)C[C@H](NC(=O)[C@@H](Cc1c[nH]c2ccccc12)NC(=O)[C@@H](Cc1ccc(O)cc1)NC(=O)[C@@H](CO)NC(=O)[C@@H](Cc1c[nH]c2ccccc12)NC(=O)C(Cc1cnc[nH]1)NC(=O)C1CCC(=O)N1)C(=O)N[C@@H](CCCN=C(N)N)C(=O)N1CCC[C@@H]1C(=O)NCC(N)=O (some centres undefined) | outcome | inactive |
| CNCC(=O)NC(CCCN=C(N)N)C(=O)NC(C(=O)NC(Cc1ccc(O)cc1)C(=O)NC(C(=O)NC(Cc1cnc[nH]1)C(=O)N1CCCC1C(=O)NC(C)C(=O)O)C(C)C)C(C)C (centres undefined) | outcome | inactive |
| CC(C)C(NC(=O)C(CC(=O)O)NC(=O)C(CCCCN)NC(=O)C(N)CCCN=C(N)N)C(=O)NC(Cc1ccc(O)cc1)C(=O)O (centres undefined) (H-RKDVY-OH; configuration not given here) | outcome | inactive |
| CC1(C)C(/C=C/C=C/C=C/C=C2\N(CCCCS(=O)(=O)O)c3ccc4ccccc4c3C2(C)C)=[N+](CCCCS(=O)(=O)[O-])c2ccc3ccccc3c21 | outcome | inactive |
| Cn1cc(O)nc1NC(=O)Nc1cccc(Cl)c1 | outcome | inactive |

input: Report measured outcome; entry is CC(N)C(=O)NCC(=O)NC1CSSCC(C(=O)O)NC(=O)C(CO)NC(=O)C(C(C)O)NC(=O)C(Cc2ccccc2)NC(=O)C(C(C)O)NC(=O)C(CCCCN)NC(=O)C(Cc2c[nH]c3ccccc23)NC(=O)C(Cc2ccccc2)NC(=O)C(Cc2ccccc2)NC(=O)C(CC(N)=O)NC(=O)C(CCCCN)NC1=O (centres undefined)
output: inactive

input: Report measured outcome; entry is CCC(C)C1NC(=O)C(Cc2ccc(O)cc2)NC(=O)C(N)CSSCC(C(=O)N2CCCC2C(=O)NC(CC(C)C)C(=O)NCC(N)=O)NC(=O)C(CC(N)=O)NC(=O)C(CCC(N)=O)NC1=O (centres undefined)
output: inactive

input: Report measured outcome; entry is CC(=O)OCC1=C(C(=O)O)N2C(=O)C(NC(=O)Cc3ccccc3)C2SC1 (centres undefined)
output: inactive

input: Report measured outcome; entry is NCCCC(N)CC(=O)NCC1NC(=O)C(CO)NC(=O)C(N)CNC(=O)C(C2CCN=C(N)N2)NC(=O)/C(=C/NC(N)=O)NC1=O (stereo not drawn) (H-[Dap]S[Dap](ξβ3hOrn)[ΔAla(Z-3-ureido)][X1]; lactam 1-C; configuration not given here)
output: inactive
